Each recorded value in this set is attributed to ChEMBL document CHEMBL1150259.

Target: Spermidine synthase (Plasmodium falciparum)
Sequence (whole entry): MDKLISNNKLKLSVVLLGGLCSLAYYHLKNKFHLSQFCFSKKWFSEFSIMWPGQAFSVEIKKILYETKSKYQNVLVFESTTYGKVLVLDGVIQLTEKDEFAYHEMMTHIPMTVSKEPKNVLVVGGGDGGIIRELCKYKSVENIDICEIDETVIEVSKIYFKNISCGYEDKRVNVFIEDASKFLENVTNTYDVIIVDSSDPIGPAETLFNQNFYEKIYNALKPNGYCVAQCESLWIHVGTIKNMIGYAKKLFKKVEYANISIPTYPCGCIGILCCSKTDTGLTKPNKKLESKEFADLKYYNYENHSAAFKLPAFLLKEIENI
Experiment: Binding affinity to Plasmodium falciparum spermidine synthase by saturation transfer difference-NMR experiment relative to methylthioadenosine
The source made the active and inactive calls. The calls are words filed in the database; no cut-off is given here.
// allowed return values: active, inactive

Nc1ncnc2c1ncn2[C@@H]1O[C@H](CO)[C@@H](O)[C@H]1O ... active
NC(=O)CSc1nc2ncnc(N)c2[nH]1 ... active
Nc1nnc(SCC(=O)Nc2cccc(Oc3ccccc3)c2)[nH]1 ... inactive

Turning now to a further record.
Request: Just curious, what result did "NCCCCCc1nc2ccccc2[nH]1" get here?
Result: active
